Assay: chemical genetic growth profiling, strain panel (AID 1159580);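 further: tested at 20 µM; growth read once vehicle control cultures reached saturation at 30 °C; 1 = growth at the plate median or of vehicle wells; lower values mean less growth of the strain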
Conditions: S. cerevisiae deletion strains, growth OD, locus YNL248C, strain rpa49
Among all 5,500 compounds or so, about 2,000 (36%) were called active. About 18% were inconclusive and are not listed. No stated cut-off is given here; in the data, active means normalized growth mostly below about 0.91 (no sharp cut-off); inconclusive means no clear call, values can overlap the other calls; inactive means mostly above about 0.92. The list shows a part of the results.
Write down one outcome, taken from T (active), F (inactive)

Consider the following illustrative entries.
Task: Would you mind telling me which call this test gave CCC(C)C(=O)c1c(O)c(C)c2oc3c(C)c(O)c(C(=O)C(C)CC)c(O)c3c2c1O (stereo not drawn) ?
Output: F

Task: Repeat with O=C(O)CCCCCCCC(=O)O
Output: F

Task: Repeat with NCCCNCCSP(=O)(O)O
Output: F

Task: Repeat with COc1ccc(-c2oc3cc(OC)c(OC)c(OC)c3c(=O)c2OC)cc1
Output: F

Task: Repeat with CC(=O)O[C@@H]1CC2C(C)(C)[C@H](O)C=C[C@]2(C)C2CC[C@@]3(C)[C@H](c4ccoc4)OC(=O)C4OC43[C@@]21C (stereo partly drawn)
Output: F

Now turn to the next compound.
Task: Would you mind telling me which call this test gave COc1ccc2c(c1)OCC(Cc1ccc(OC)c(OC(C)=O)c1)C2=O (stereo not drawn) ?
Output: F

* * *

Experiment: chemical genetic growth profiling, strain panel (AID 1159580)
Conditions: S. cerevisiae deletion strains, growth OD, locus YER155C, strain BEM2 (second series), hits give low values
Hit rate of the full screen: of about 5,500 compounds, about 2,000 (36%) were called active. About 18% were inconclusive and are not listed. This is one part of the list.
The label class 1 is reserved for normalized growth strictly under 1; class 0 covers values equal to or above it.

Task: Is normalized growth strictly under 1 for the entry Cc1ccc(C(=O)c2ccc(CC(=O)O)n2C)cc1 ?
Output: class 1

Task: Repeat with COc1ccc(CCC(=O)c2c(O)cc(O[C@@H]3O[C@H](CO)C(O)[C@H](O)C3O[C@@H]3O[C@@H](C)[C@H](O)[C@@H](O)[C@H]3O)cc2O)cc1O (stereo not given in full)
Output: class 0

Task: Repeat with CC1CCC(NC(=O)N(CCCl)N=O)CC1 (stereo not given)
Output: class 1

* * *

Experiment: chemical genetic growth profiling, strain panel (AID 1159580)
Settings: S. cerevisiae deletion strains, growth OD, locus YGL253W, strain hxk2, hits give low values
Out of some 5,500 compounds screened, about 2,000 (36%) were called active. Inconclusive results (about 18%) are left out. The list shows a part of the results.
The entries below come with measured normalized growth values attached.

Task: Name the reported normalized growth value associated with the compound NC(C(=O)O)C(O)C(=O)O (stereo not drawn)
Output: 1.02 (inactive)

Task: Repeat with CCCCC(=O)O[C@]1(C(=O)CO)CCC2C3CCC4=CC(=O)CC[C@]4(C)C3[C@@H](O)C[C@@]21C (stereo partly drawn)
Output: 0.976 (inactive)

Here's the next entry for you.
Task: Name the reported normalized growth value associated with the compound CCCn1c(=O)c2[nH]c(C3CCCC3)nc2n(CCC)c1=O
Output: 0.992 (inactive)

* * *

The entries below come with measured normalized growth values attached.
Assay: chemical genetic growth profiling, strain panel (AID 1159580)
Conditions: S. cerevisiae deletion strains, growth OD, locus YJL187C, strain SWE1 (second series), hits give low values
The campaign covered roughly 5,500 compounds. About 2,000 (36%) were called active. Inconclusive results (about 18%) are left out. The list shows a part of the results.
Kindly provide the number alone.

Known normalized growth results, listed for orientation:
Task: Name the reported normalized growth value associated with the compound CC(=O)O[C@H]1C[C@@H](OC(C)=O)C(C)(C)C2C[C@@H](OC(C)=O)[C@]3(C)C(CC[C@@]4(C)[C@H](c5ccoc5)OC(=O)[C@H]5O[C@]543)[C@]21C (stereo not given in full)
Output: 0.989

Task: Repeat with COc1c(C)c2c(c(O)c1C/C=C(\C)CCC(=O)O)C(=O)OC2
Output: 0.749

Task: Repeat with CC(=O)O[C@H]1CC[C@@]2(C)C(C[C@@H](OC(C)=O)[C@]3(C)C2CC[C@@]2(C)[C@H](c4ccoc4)OC(=O)[C@H]4O[C@]423)C1(C)C (stereo not given in full)
Output: 1.04

---
Task: Name the reported normalized growth value associated with the compound CC1CCC(NC(=O)N(CCCl)N=O)CC1 (stereo not given)
Output: 1

Task: Repeat with CC(=O)O[C@@H]1CC2C(C)(C)[C@H](O)CC[C@]2(C)C2CC[C@@]3(C)[C@H](c4ccoc4)OC(=O)[C@H]4O[C@]43[C@@]21C (stereo not given in full)
Output: 1.03

* * *

Assay: chemical genetic growth profiling, strain panel (AID 1159580)
Details: S. cerevisiae deletion strains, growth OD, locus YPL241C, strain CIN2, hits give low values
The whole screen tested about 5,500 compounds, of which about 2,000 (36%) were called active. Not shown: some 18% with an inconclusive outcome. Some of the results follow.
Readout Name: normalized growth
Kindly provide the number alone.

Task: Name the reported normalized growth value associated with the compound C[C@]12C=CC(=O)C=C1CCC1C2[C@@H](O)C[C@@]2(C)C1CC[C@]2(O)C(=O)CO (stereo partly drawn)
Output: 0.993

Task: Repeat with C[C@@H]1CC[C@H]2C(C)(C)C3CC12CC[C@@]3(C)O (stereo partly drawn)
Output: 1.02

Task: Repeat with COc1cc(OC)c2c(=O)cc(-c3ccccc3)oc2c1
Output: 0.946

* * *

Assay: chemical genetic growth profiling, strain panel (AID 1159580)
Settings: S. cerevisiae deletion strains, growth OD, locus YER110C, hits give low values
About 2,000 (36%) of roughly 5,500 compounds were called active. Not shown: some 18% with an inconclusive outcome. This is one part of the list.
Readout Name: normalized growth
Kindly provide the number alone.

Known normalized growth results, listed for orientation:
Task: Name the reported normalized growth value associated with the compound CC(=O)OC1CC(O)C(C)(C)C2CC(=O)C3(C)C(CCC4(C)C(c5ccoc5)OC(=O)C5OC543)C12C (centres undefined)
Output: 0.985

Task: Repeat with NCC[C@@H](O)C(=O)N[C@@H]1C[C@H](N)[C@@H](O[C@H]2O[C@H](CN)[C@@H](O)[C@H](O)[C@H]2O)[C@H](O)[C@H]1O[C@H]1O[C@H](CO)[C@@H](O)[C@H](N)C1O (some centres undefined)
Output: 1.03

Task: Repeat with CC12CCC3C(=CCc4cc(O)ccc43)C1CCC2=O (centres undefined)
Output: 0.993

Here's the next entry for you.
Task: Name the reported normalized growth value associated with the compound COc1c(C)c2c(c(O)c1C/C=C(\C)CCC(=O)O)C(=O)OC2
Output: 1.02

* * *

Assay: chemical genetic growth profiling, strain panel (AID 1159580);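 further: tested at 20 µM; growth read once vehicle control cultures reached saturation at 30 °C; 1 = growth at the plate median or of vehicle wells; lower values mean less growth of the strain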
Conditions: S. cerevisiae deletion strains, growth OD, locus YOR070C, strain gyp1
The campaign covered roughly 5,500 compounds. About 2,000 (36%) were called active. Another 18% or so got no clear call; they are omitted. No stated cut-off is given here; in the data, active means normalized growth mostly below about 0.91 (no sharp cut-off); inconclusive means no clear call, values can overlap the other calls; inactive means mostly above about 0.92. This is one part of the list.
Write down one outcome, taken from active, inactive

Consider the following illustrative entries.
Task: Would you mind telling me which call this test gave Cc1cc(CC(=O)O)n(C)c1C(=O)c1ccc(Cl)cc1 ?
Output: inactive

Task: Repeat with Clc1ccc(C(c2ccccc2Cl)C(Cl)Cl)cc1 (stereo unspecified)
Output: inactive

Task: Repeat with N[C@@H](C(=O)O)[C@@H](O)[C@H](O)[C@H](O)CO
Output: inactive

Task: Repeat with COc1c(C)c2c(c(O)c1C/C=C(\C)CCC(=O)O)C(=O)OC2
Output: active

Task: Repeat with NC(C(=O)O)C(O)C(=O)O (stereo unspecified)
Output: inactive

---
Task: Would you mind telling me which call this test gave COc1ccc(CCC(=O)c2c(O)cc(O[C@@H]3O[C@H](CO)C(O)[C@H](O)C3O[C@@H]3O[C@@H](C)[C@H](O)[C@@H](O)[C@H]3O)cc2O)cc1O (stereo partly specified) ?
Output: inactive

* * *

The entries below come with measured normalized growth values attached.
Test: chemical genetic growth profiling, strain panel (AID 1159580);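 further: tested at 20 µM; growth read once vehicle control cultures reached saturation at 30 °C; 1 = growth at the plate median or of vehicle wells; lower values mean less growth of the strain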
Conditions: S. cerevisiae deletion strains, growth OD, locus YIL066C, strain RNR3, hits give low values
About 2,000 (36%) of roughly 5,500 compounds were called active. Another 18% or so got no clear call; they are omitted. Some of the results follow.

Known normalized growth results, listed for orientation:
Task: Name the reported normalized growth value associated with the compound CC(=O)C1CC[C@H]2C3CC[C@H]4C[C@H](O)CC[C@]4(C)C3CC[C@]12C (stereo partly drawn)
Output: 1.01 (inactive)

Task: Repeat with CC(=O)O[C@]1(C)CC[C@@]23CC1C(C)(C)[C@@H]2CC[C@H]3C
Output: 0.973 (inactive)

Here's the next entry for you.
Task: Name the reported normalized growth value associated with the compound C[C@]12CCC3C(CC[C@H]4C[C@H](O)CC[C@]34C)C1CC[C@@H]2O (stereo partly drawn)
Output: 1 (inactive)

* * *

Test: chemical genetic growth profiling, strain panel (AID 1159580);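 further: tested at 20 µM; growth read once vehicle control cultures reached saturation at 30 °C; 1 = growth at the plate median or of vehicle wells; lower values mean less growth of the strain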
Conditions: S. cerevisiae deletion strains, growth OD, locus YER167W, strain BCK2, hits give low values
Hit rate of the full screen: of about 5,500 compounds, about 2,000 (36%) were called active. Inconclusive results (about 18%) are left out. The list shows a part of the results.
Readout Name: normalized growth
Kindly provide the number alone.

Known normalized growth results, listed for orientation:
Task: Name the reported normalized growth value associated with the compound CC(=O)O[C@H]1CC[C@@]2(C)C(C[C@@H](OC(C)=O)[C@]3(C)C2CC[C@@]2(C)[C@H](c4ccoc4)OC(=O)[C@H]4O[C@]423)C1(C)C (some centres undefined)
Output: 0.993

Task: Repeat with O=c1cccc2n1CC1CC2CN2CCCC[C@@H]12 (some centres undefined)
Output: 0.987

Task: Repeat with CC(=O)O[C@H]1C[C@@H](OC(C)=O)C(C)(C)C2C[C@@H](OC(C)=O)[C@]3(C)C(CC[C@@]4(C)[C@H](c5ccoc5)OC(=O)[C@H]5O[C@]543)[C@]21C (some centres undefined)
Output: 0.998

Task: Repeat with CC1(C)C(=O)[C@@H]2O[C@@H]2[C@@]2(C)C1C[C@@H](O)[C@]1(C)C2CC[C@@]2(C)[C@H](c3ccoc3)OC(=O)C3OC321 (some centres undefined)
Output: 1.01

Task: Repeat with COc1ccc2c(c1)OCC(Cc1ccc(OC)c(OC)c1)C2=O (centres undefined)
Output: 0.997

---
Task: Name the reported normalized growth value associated with the compound CC(=O)O[C@@H]1CC2C(C)(C)[C@H](O)CC[C@]2(C)C2CC[C@@]3(C)[C@H](c4ccoc4)OC(=O)C4OC43[C@@]21C (some centres undefined)
Output: 0.996

Task: Repeat with CC(=O)O[C@@H]1CC2C(C)(C)[C@H](O)CC[C@]2(C)C2CC[C@@]3(C)[C@H](c4ccoc4)OC(=O)[C@H]4O[C@]43[C@@]21C (some centres undefined)
Output: 1.01

Task: Repeat with COC1=CC(=O)OC(CCc2ccc(OC)c(OC)c2)C1 (centres undefined)
Output: 1.02

Task: Repeat with NCCCCCC(=O)O
Output: 0.99

Task: Repeat with COc1ccc(CCC(=O)c2c(O)cc(O[C@@H]3O[C@H](CO)C(O)[C@H](O)C3O[C@@H]3O[C@@H](C)[C@H](O)[C@@H](O)[C@H]3O)cc2O)cc1O (some centres undefined)
Output: 0.994

Task: Repeat with CC(=O)OCC(=O)[C@@]1(O)CCC2C3CCC4=CC(=O)C=CC4(C)C3[C@@H](O)C[C@@]21C (some centres undefined)
Output: 1.01

Task: Repeat with COC1C=CC23c4cc5c(cc4CN(CC2O)[C@@H]3C1)OCO5 (some centres undefined)
Output: 0.992
